# Target Under Test: T1, MBP-tagged split mFAP fragment m16 (β-strands 1-6 of mFAP2a)
# T1 chain: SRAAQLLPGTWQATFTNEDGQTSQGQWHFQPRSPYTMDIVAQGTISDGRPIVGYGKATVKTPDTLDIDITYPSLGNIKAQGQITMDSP
# Assay Procedure: fluorescence complementation titration: MBP-tagged m78 titrated into fixed MBP-tagged m16 in 25.0 µM DFHBI-1T; signal did not plateau, Kd is at least the highest titrant concentration
Ends that are not written are not given here.
Parameter Measured: Kd

Form: binder = TQFKWDATTKGENDFHGRLTGTLQRQE (designed binder, not shown: large carriers, also: MBP tag fused, side and linker not given here) [MBP-tagged split mFAP fragment m78 (β-strands 7-8 of mFAP2a)] ; Kd = ≥ 232 µM
